- assayed_target: CCR5 (Homo sapiens, UniProt P51681)
- Construct: purchased Promega (in-house HiBiT-GPCR construct library, NanoBRET)
- Sequence (P51681 whole entry): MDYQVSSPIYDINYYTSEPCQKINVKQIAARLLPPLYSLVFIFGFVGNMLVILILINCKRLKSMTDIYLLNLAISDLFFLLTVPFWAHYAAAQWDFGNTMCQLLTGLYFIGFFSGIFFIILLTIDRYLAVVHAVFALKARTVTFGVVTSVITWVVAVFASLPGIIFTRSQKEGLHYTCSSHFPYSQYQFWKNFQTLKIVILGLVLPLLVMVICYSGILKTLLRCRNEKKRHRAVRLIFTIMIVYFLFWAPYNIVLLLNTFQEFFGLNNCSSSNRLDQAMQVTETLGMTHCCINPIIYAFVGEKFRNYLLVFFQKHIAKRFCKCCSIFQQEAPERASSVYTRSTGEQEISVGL
- protocol_description: NanoBRET screen HiBiT-CCR5 in HEK293
- Type: binding
- cond: CCR5; tracer 0.1μM
Label yes when NanoBRET Fold Response >= 1; otherwise no.

CC(C)N(CC[C@H](c1ccccc1)c1cc(CCNC(=O)CCOCCOCCOCCOCCNC(=O)CCc2ccc3n2[B-](F)(F)[N+]2=C(c4ccc[nH]4)C=CC2=C3)ccc1O)C(C)C; yes
COc1ccccc1N1CCN(CCCCN2C(=O)c3ccc(CNC(=O)CCOCCOCCOCCOCCNC(=O)CCc4ccc5n4[B-](F)(F)[N+]4=C(c6ccc[nH]6)C=CC4=C5)cc3C2=O)CC1; no
COc1ccccc1N1CCN(CCCCN2C(=O)c3ccc(CNC(=O)CCOCCNC(=O)c4ccc(CNC(=O)CCc5ccc6n5[B-](F)(F)[N+]5=C(c7ccc[nH]7)C=CC5=C6)cc4)cc3C2=O)CC1; no

In plain terms: is recorded NanoBRET Fold Response at least 1 for O=C(CCc1ccc2n1[B-](F)(F)[N+]1=C(c3ccc[nH]3)C=CC1=C2)NCCOCCOCCNC(=O)OCCOCCN1CCN(C2=Nc3ccccc3Sc3ccccc32)CC1 ?
no

Would you say CCCn1c(=O)c2[nH]c(-c3ccc(OCC(=O)NCCNC(=O)CCOCCNC(=O)c4ccc(CNC(=O)CCc5ccc6n5[B-](F)(F)[N+]5=C(c7ccc[nH]7)C=CC5=C6)cc4)cc3)nc2n(CCC)c1=O shows NanoBRET Fold Response at minimum 1?
no

Is NanoBRET Fold Response for CC(C)N(CC[C@H](c1ccccc1)c1cc(CCNC(=O)c2ccc(CNC(=O)CCc3ccc4n3[B-](F)(F)[N+]3=C(c5ccc[nH]5)C=CC3=C4)cc2)ccc1O)C(C)C at or above 1?
yes

For this compound, is measured NanoBRET Fold Response 1 or higher? O=C(CCc1ccc2n1[B-](F)(F)[N+]1=C(c3ccc[nH]3)C=CC1=C2)NCc1ccc(C(=O)NCCOCCC(=O)N[C@@H]2CC[C@@]3(O)[C@H]4Cc5ccc(O)c6c5[C@@]3(CCN4CC3CC3)[C@H]2O6)cc1 [Naltrexone-3-NB590]
yes

Entry Cc1nc2n(c(=O)c1CCN1CCC(c3noc4cc(F)ccc34)CC1)CCCC2OC(=O)NCCOCCOCCOCCOCCNC(=O)CCc1ccc2n1[B-](F)(F)[N+]1=C(c3ccc[nH]3)C=CC1=C2 (centres unmarked) : is its NanoBRET Fold Response no less than 1?
no

---

Items are presented alongside their recorded NanoBRET Fold Response.
- assayed_target: GPR50 (Homo sapiens, UniProt Q13585)
- Construct: purchased Promega (in-house HiBiT-GPCR construct library, NanoBRET)
- Sequence (Q13585 whole entry): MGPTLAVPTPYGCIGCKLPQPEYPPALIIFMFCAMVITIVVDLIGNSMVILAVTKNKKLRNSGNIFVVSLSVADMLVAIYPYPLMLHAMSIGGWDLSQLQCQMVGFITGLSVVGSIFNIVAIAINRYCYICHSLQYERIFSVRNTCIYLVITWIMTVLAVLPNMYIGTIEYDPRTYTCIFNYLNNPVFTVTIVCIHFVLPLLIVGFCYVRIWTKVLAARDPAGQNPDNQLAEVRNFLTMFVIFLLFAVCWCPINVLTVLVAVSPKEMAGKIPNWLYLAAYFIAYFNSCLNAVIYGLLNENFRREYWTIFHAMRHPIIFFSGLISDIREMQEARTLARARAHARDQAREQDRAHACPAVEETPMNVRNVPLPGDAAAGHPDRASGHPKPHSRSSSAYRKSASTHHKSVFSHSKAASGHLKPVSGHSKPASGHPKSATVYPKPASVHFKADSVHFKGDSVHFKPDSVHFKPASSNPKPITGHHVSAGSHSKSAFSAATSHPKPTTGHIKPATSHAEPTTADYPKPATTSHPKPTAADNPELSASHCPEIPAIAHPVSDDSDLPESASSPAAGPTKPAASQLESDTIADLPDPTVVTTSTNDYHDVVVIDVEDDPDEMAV
- protocol_description: NanoBRET screen HiBiT-GPR50 in HEK293
- Type: binding
- cond: GPR50; tracer 0.1μM
Format: numeric value only, no unit, no commentary.

Here's what some known entries look like.
COc1ccccc1N1CCN(CCCCN2C(=O)c3ccc(CNC(=O)CCOCCNC(=O)c4ccc(CNC(=O)CCc5ccc6n5[B-](F)(F)[N+]5=C(c7ccc[nH]7)C=CC5=C6)cc4)cc3C2=O)CC1 [NAN-190-3-NB590]; 0.97
CCCn1c(=O)c2[nH]c(-c3ccc(OCC(=O)NCCNC(=O)CCOCCNC(=O)c4ccc(CNC(=O)CCc5ccc6n5[B-](F)(F)[N+]5=C(c7ccc[nH]7)C=CC5=C6)cc4)cc3)nc2n(CCC)c1=O [XAC-3-NB590]; 1.05
O=C(CCc1ccc2n1[B-](F)(F)[N+]1=C(c3ccc[nH]3)C=CC1=C2)NCc1ccc(C(=O)NCCOCCC(=O)N[C@@H]2CC[C@@]3(O)[C@H]4Cc5ccc(O)c6c5[C@@]3(CCN4CC3CC3)[C@H]2O6)cc1 [Naltrexone-3-NB590]; 0.94

Switching to the query record.
// NanoBRET Fold Response value for Cc1nc2n(c(=O)c1CCN1CCC(c3noc4cc(F)ccc34)CC1)CCCC2OC(=O)NCCOCCOCCOCCOCCNC(=O)CCc1ccc2n1[B-](F)(F)[N+]1=C(c3ccc[nH]3)C=CC1=C2 (stereo not shown) [Risperidone-2-NB590] : 0.99
